Experiment: Solubility of the compound in FaSSIF
Assay type: physicochemical
value_type: solubility (µg/mL)
Give bare numbers, in µg/mL.

Requested field: solubility. Item: CC(C)C[C@](C)(N)COc1ccc(-c2ccnc(C(F)F)c2)nc1C(F)F
700

---

Target: UniProtKB P08684
Sequence (P08684 whole entry): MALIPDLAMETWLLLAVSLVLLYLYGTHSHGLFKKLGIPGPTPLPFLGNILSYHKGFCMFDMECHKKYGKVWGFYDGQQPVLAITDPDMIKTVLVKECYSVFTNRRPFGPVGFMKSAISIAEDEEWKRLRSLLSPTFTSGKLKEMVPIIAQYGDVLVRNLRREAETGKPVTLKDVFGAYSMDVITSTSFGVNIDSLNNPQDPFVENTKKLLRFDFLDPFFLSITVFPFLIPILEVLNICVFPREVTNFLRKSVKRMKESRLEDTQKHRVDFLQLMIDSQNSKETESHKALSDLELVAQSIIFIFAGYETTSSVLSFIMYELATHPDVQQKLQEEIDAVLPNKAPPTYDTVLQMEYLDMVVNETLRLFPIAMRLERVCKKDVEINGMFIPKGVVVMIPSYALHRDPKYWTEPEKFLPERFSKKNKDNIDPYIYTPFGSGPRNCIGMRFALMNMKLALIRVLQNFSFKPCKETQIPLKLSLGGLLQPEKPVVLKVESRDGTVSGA
Test: Time dependent inhibition of CYP3A4 (unknown origin) using TST as substrate measured at 5 mins
Type: ADME
pIC50: −log10 of the molar value.
value_type: pIC50

Requested field: pIC50. Item: CC(C)C[C@](C)(N)COc1ccc(-c2ccnc(C(F)F)c2)nc1C(F)F
< 4.40

---

Test: Cmax in dog at 3 mg/kg, po
Type: ADME, organism-based, Canis lupus familiaris
Design: route oral, dose 3 mg/kg
Details: in vivo
value_type: Cmax (ng/mL)
Give bare numbers, in ng/mL.

Requested field: Cmax. Item: CC(C)C[C@](C)(N)COc1ccc(-c2ccnc(C(F)F)c2)nc1C(F)F
200
